So I've got pIC50 readings for DNA (cytosine-5)-methyltransferase 1 (Homo sapiens, UniProt P26358), take a look.
Please keep in mind that pIC50 is minus log10 of the molar concentration; only the number is needed.

Examples with their reported pIC50 follow.
| molecule | pIC50 |
| --- | --- |
| Nc1ncnc2c1ncn2[C@@H]1O[C@H](CS[C@@H]2CCC[C@@H]2N)[C@@H](O)[C@H]1O | 4.03 |
| Nc1nc(Cl)nc2c1ncn2C1O[C@H](CS[C@@H]2CN[C@H](C(=O)O)C2)[C@@H](O)[C@H]1O (single isomer, unassigned) | 6.09 |
| Nc1ncnc2c1ncn2[C@@H]1O[C@H](CS[C@@H]2CCNC2)[C@@H](O)[C@H]1O | 5.32 |
| NCCSC[C@H]1O[C@@H](n2cnc3c(N)ncnc32)[C@H](O)[C@@H]1O | 4.74 |
| COC(=O)[C@@H]1C[C@H](SC[C@H]2O[C@@H](n3cnc4c(N)ncnc43)[C@H](O)[C@@H]2O)CN1C | 5.35 |

Prompt: Look up and report measured pIC50 (DNA (cytosine-5)-methyltransferase 1 (Homo sapiens, UniProt P26358)) for the following molecule: Nc1ncnc2c1ncn2[C@@H]1O[C@H](CS[C@@H]2CN[C@H](C(=O)O)C2)[C@@H](O)[C@H]1O
Completion: 5.96

FYI, the data here is from ChEMBL document CHEMBL1151876.
